So I've got IC50 readings for HDAC8 (Homo sapiens (Human), UniProt Q9BY41), take a look.

Fc1ccc(C2(Nc3ncc(-c4nnc(C(F)F)o4)cn3)CC2)c(Cl)c1 [Example 62] ... > 30 µM
CS(=O)(=O)N(CC(Nc1ncc(-c2nnc(C(F)F)o2)cn1)c1ccc(F)cc1)CC(F)(F)F (single isomer, unassigned) [118(+)] ... > 30 µM
Fc1ccc(C2(Nc3ncc(-c4nnc(C(F)F)o4)cn3)CC2)cc1 [Example 5] ... > 30 µM
CC(C)(Nc1ncc(-c2nnc(C(F)F)o2)cn1)c1ccc(F)cc1 [Example 9] ... > 30 µM
CS(=O)(=O)NCC(Nc1ncc(-c2nnc(C(F)F)o2)cn1)c1ccc(F)cc1 (single isomer, unassigned) [38(+)] ... > 30 µM

Noted IC50 for CS(=O)(=O)NCC(Nc1ncc(-c2nnc(C(F)F)o2)cn1)c1ccc(OC(F)(F)F)cc1 (single isomer, unassigned) [122(+)] , tested on HDAC8 (Homo sapiens (Human), UniProt Q9BY41): > 30 µM

Readout IC50 for CS(=O)(=O)CC(Nc1ncc(-c2nnc(C(F)F)o2)cn1)c1ccc(F)cc1 (single isomer, unassigned) [161(+)] , test system HDAC8 (Homo sapiens (Human), UniProt Q9BY41), was > 30 µM

IC50 for HDAC8 (Homo sapiens (Human), UniProt Q9BY41) with input O=S(=O)(NCC(Nc1ncc(-c2nnc(C(F)F)o2)cn1)c1ccc(F)cc1)C1CC1 (stereo not shown) [Example 110] equals > 30 µM

Bench note, HDAC8 (Homo sapiens (Human), UniProt Q9BY41): O=C(NCC(Nc1ncc(-c2nnc(C(F)F)o2)cn1)c1ccc(F)cc1)C1CC1 (single isomer, unassigned) [168(+)] , IC50 reads > 30 µM

Reported HDAC8 (Homo sapiens (Human), UniProt Q9BY41) IC50 for item CS(=O)(=O)NCC(Nc1ncc(-c2nnc(C(F)F)o2)cn1)c1ccc(OC(F)F)cc1 (single isomer, unassigned) [115(+)] was > 30 µM

====

pIC50: recorded values
Target: HDAC6 (Homo sapiens (Human), UniProt Q9UBN7)
Sequence (Q9UBN7 whole entry): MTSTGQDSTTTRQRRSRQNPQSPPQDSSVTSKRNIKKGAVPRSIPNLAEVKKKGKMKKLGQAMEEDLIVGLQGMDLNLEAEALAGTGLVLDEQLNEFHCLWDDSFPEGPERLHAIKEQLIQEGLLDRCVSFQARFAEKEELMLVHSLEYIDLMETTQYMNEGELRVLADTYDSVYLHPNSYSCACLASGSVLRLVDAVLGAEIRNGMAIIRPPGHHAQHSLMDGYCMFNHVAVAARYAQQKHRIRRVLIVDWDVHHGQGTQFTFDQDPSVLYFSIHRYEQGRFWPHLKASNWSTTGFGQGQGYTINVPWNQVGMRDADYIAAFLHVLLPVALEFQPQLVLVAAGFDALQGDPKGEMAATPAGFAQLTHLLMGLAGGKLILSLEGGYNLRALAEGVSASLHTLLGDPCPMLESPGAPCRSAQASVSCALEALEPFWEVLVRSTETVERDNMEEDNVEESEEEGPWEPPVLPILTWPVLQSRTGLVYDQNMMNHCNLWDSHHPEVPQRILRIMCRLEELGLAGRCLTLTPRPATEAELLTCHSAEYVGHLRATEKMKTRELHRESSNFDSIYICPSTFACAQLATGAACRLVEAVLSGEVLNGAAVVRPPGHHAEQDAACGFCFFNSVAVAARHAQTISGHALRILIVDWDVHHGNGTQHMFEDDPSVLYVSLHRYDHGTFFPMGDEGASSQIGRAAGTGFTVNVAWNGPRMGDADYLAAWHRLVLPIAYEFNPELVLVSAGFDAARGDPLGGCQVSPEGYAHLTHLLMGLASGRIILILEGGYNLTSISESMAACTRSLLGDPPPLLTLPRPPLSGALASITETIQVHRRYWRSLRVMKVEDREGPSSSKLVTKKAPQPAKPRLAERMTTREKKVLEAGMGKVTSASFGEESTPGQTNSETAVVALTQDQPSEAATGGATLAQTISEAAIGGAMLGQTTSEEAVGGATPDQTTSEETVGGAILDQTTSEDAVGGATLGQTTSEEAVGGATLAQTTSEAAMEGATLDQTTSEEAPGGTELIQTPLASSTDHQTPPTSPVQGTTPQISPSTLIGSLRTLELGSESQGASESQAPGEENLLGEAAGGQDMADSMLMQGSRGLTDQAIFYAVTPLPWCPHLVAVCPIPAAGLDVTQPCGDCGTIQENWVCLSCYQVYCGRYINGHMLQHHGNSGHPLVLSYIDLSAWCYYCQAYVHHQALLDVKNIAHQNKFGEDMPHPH
Experiment: HDAC6 enzymatic assay
Type: biochemical
Details: read-out: Human HDAC6 IC50
Remember the convention: pIC50 equals -log10 of concentration in molar.

FC(F)c1nnc(-c2cnc(NC3(c4ccccc4Cl)CC3)nc2)o1 [Example 52] ... 8.22
Fc1cccc(F)c1C1(Nc2ncc(-c3nnc(C(F)F)o3)cn2)CC1 [Example 11] ... 8.22
Fc1ccc(C2(Nc3ncc(-c4nnc(C(F)F)o4)cn3)CC2)cc1 [Example 5] ... 7.47

Moving on to the next compound.
Noted for CS(=O)(=O)NCC(Nc1ncc(-c2nnc(C(F)F)o2)cn1)c1ccc(F)c(F)c1 (single isomer, unassigned) [171(+)] : its pIC50 reads 6.64

====

Target: HDAC7 (Homo sapiens (Human), UniProt Q8WUI4)
Sequence (Q8WUI4 whole entry): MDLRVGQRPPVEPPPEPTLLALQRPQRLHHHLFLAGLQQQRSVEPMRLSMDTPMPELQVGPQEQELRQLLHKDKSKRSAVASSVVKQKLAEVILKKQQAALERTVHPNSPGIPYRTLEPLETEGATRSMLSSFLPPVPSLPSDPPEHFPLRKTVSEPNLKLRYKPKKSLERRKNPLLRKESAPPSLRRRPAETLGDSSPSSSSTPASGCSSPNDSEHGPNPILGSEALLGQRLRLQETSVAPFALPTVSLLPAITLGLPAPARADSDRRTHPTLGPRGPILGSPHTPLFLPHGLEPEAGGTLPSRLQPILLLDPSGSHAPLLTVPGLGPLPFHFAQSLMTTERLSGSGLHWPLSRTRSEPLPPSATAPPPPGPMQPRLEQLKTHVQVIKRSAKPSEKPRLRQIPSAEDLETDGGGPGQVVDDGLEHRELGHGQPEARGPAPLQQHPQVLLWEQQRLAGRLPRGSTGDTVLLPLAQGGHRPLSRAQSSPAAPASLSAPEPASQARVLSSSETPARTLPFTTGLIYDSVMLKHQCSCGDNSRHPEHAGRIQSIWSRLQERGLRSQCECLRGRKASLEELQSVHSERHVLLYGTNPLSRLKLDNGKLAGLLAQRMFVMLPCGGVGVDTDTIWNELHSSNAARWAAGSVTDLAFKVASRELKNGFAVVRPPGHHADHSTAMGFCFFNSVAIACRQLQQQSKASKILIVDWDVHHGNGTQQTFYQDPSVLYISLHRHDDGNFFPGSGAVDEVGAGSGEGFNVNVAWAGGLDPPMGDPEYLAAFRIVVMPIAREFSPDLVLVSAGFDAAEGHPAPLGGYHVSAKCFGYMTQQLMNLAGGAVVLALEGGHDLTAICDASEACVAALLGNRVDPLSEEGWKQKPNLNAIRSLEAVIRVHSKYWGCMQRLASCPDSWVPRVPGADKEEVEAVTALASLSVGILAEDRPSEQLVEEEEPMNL
experimentalReadout: pIC50
On this scale, pIC50 is minus log10 of a concentration expressed in M (mol/L).

CS(=O)(=O)NCC(Nc1ncc(-c2nnc(C(F)F)o2)cn1)c1ccc(OC(F)F)cc1 (single isomer, unassigned) [115(+)] ... 4.92
O=C(NCC(Nc1ncc(-c2nnc(C(F)F)o2)cn1)c1ccc(F)cc1)C1CC1 (single isomer, unassigned) [168(+)] ... 4.61
CS(=O)(=O)NCC(Nc1ncc(-c2nnc(C(F)F)o2)cn1)c1ccc(OC(F)(F)F)cc1 (single isomer, unassigned) [122(+)] ... 4.57

Entry CS(=O)(=O)NCC(Nc1ncc(-c2nnc(C(F)F)o2)cn1)c1ccc(F)cc1 (single isomer, unassigned) [38(+)] , tested on HDAC7 (Homo sapiens (Human), UniProt Q8WUI4), has a reported pIC50 of 4.78

====

Molecular target: HDAC6 (Homo sapiens (Human), UniProt Q9UBN7)
Test: HDAC6 enzymatic assay
Type: biochemical
Conditions: read-out: Human HDAC6 IC50
experimentalReadout: pIC50
API: returns pIC50 as number; meaning -log10 of concentration in mol/L.

Completed entries (count: 3):
FC(F)c1nnc(-c2cnc(NC3(c4ccc(Br)nc4)CC3)nc2)o1 ... 7.55
CC(=O)NCC(Nc1ncc(-c2nnc(C(F)F)o2)cn1)c1ccc(F)cc1 (single isomer, unassigned) [78(+)] ... 7.32
CC(C)(Nc1ncc(-c2nnc(C(F)F)o2)cn1)c1ccc(F)cc1 ... 7.42

Sample Fc1cccc(C2(Nc3ncc(-c4nnc(C(F)F)o4)cn3)CC2)c1Cl ; pIC50 observed: 7.68

Record COc1ccccc1C1(Nc2ncc(-c3nnc(C(F)(F)F)o3)cn2)CC1 , field pIC50: 6.66

Looking up CN(CC(Nc1ncc(-c2nnc(C(F)F)o2)cn1)c1ccc(OC(F)(F)F)cc1)S(=O)(=O)C1CC1 (stereo not drawn) [159(+)] , I see its pIC50 listed as 7.05

# pIC50 of O=S(=O)(NCC(Nc1ncc(-c2nnc(C(F)F)o2)cn1)c1ccc(F)cc1F)C1CC1 (stereo not drawn) [142(+)] = 7.46

The molecule listed as CS(=O)(=O)N(CC(Nc1ncc(-c2nnc(C(F)F)o2)cn1)c1ccc(F)c(F)c1)CC(F)(F)F (single isomer, unassigned) [172(B)] shows pIC50 equal to 7.07

Reported pIC50 ( CC(Nc1ncc(-c2nnc(C(F)F)o2)cn1)c1ccc(F)cc1 (stereo not drawn) [Example 20] ) = 7.48

The reported value for CS(=O)(=O)NCC(Nc1ncc(-c2nnc(C(F)F)o2)cn1)c1ccc(F)cc1 (single isomer, unassigned) [38(+)] in terms of pIC50 is 7.82

Field pIC50 (entry CN(CC(Nc1ncc(-c2nnc(C(F)F)o2)cn1)c1ccc(F)cc1)C(=O)C1CC1 (single isomer, unassigned) [169(+)] ) reads 7.11

====

Each item that follows carries a reported pIC50.
Target: HDAC1 (Homo sapiens (Human))
Sequence (Q13547 whole entry): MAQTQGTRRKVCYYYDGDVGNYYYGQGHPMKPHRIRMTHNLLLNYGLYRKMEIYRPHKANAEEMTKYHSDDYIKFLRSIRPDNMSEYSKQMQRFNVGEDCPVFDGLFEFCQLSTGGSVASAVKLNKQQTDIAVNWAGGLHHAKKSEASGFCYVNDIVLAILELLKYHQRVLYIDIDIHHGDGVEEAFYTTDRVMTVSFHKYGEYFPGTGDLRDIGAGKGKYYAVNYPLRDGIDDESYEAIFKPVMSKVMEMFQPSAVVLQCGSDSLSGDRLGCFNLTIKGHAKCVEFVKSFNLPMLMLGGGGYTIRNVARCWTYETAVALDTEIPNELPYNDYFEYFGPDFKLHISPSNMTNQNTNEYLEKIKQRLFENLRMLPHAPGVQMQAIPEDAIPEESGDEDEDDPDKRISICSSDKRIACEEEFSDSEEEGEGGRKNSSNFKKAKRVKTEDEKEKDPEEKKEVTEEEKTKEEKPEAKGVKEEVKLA
Test: HDAC1 enzymatic assay
Format: biochemical
Conditions: read-out: Human HDAC1 IC50
pIC50: −log10 of the molar value.

CC(Nc1ncc(-c2nnc(C(F)(F)F)o2)cn1)c1ccccc1 (centres unmarked) [Example 2] ... < 4.52
Cc1cccc(C2(Nc3ncc(-c4nnc(C(F)F)o4)cn3)CC2)c1Cl [Example 77] ... < 4.52
Fc1ccccc1C1(Nc2ncc(-c3nnc(C(F)F)o3)cn2)CC1 [Example 56] ... < 4.00
Cc1ccc(Cl)c(C2(Nc3ncc(-c4nnc(C(F)F)o4)cn3)CC2)c1 [Example 90] ... < 4.52

Sample CN(CC(Nc1ncc(-c2nnc(C(F)F)o2)cn1)c1ccc(F)cc1)S(C)(=O)=O (centres unmarked) [Example 113] ; pIC50 observed: < 4.52

====

IC50 for assorted compounds
Target: HDAC6 (Homo sapiens (Human))
Test: HDAC6 enzymatic assay
Format: biochemical
Conditions: selectivity profile; read-out: HDAC Enzyme IC50, HDAC 6
The answer is to be given in nM; state only the numeric part.

Example results:
CS(=O)(=O)NCC(Nc1ncc(-c2nnc(C(F)F)o2)cn1)c1ccc(OC(F)F)cc1 (single isomer, unassigned) [115(+)] ... 18
Fc1cccc(F)c1C1(Nc2ncc(-c3nnc(C(F)F)o3)cn2)CC1 [Example 11] ... 6
CS(=O)(=O)NCC(Nc1ncc(-c2nnc(C(F)F)o2)cn1)c1ccc(OC(F)(F)F)cc1 (single isomer, unassigned) [122(+)] ... 31

C[C@@H](Nc1ncc(-c2nnc(C(F)F)o2)cn1)c1ccc(F)cc1F [Example 99-R] yielded IC50 of 28

The compound listed as CS(=O)(=O)N(CC(Nc1ncc(-c2nnc(C(F)F)o2)cn1)c1ccc(F)cc1)CC(F)(F)F (single isomer, unassigned) [118(+)] shows IC50 equal to 29

Item: O=C(NCC(Nc1ncc(-c2nnc(C(F)F)o2)cn1)c1ccc(F)cc1)C1CC1 (single isomer, unassigned) [168(+)] | IC50: 29

Please fill in: IC50 reported for CS(=O)(=O)CC(Nc1ncc(-c2nnc(C(F)F)o2)cn1)c1ccc(F)cc1 (single isomer, unassigned) [161(+)] = 43

====

Molecular target: UniProt Q92769
Sequence (Q92769 whole entry, species assumed): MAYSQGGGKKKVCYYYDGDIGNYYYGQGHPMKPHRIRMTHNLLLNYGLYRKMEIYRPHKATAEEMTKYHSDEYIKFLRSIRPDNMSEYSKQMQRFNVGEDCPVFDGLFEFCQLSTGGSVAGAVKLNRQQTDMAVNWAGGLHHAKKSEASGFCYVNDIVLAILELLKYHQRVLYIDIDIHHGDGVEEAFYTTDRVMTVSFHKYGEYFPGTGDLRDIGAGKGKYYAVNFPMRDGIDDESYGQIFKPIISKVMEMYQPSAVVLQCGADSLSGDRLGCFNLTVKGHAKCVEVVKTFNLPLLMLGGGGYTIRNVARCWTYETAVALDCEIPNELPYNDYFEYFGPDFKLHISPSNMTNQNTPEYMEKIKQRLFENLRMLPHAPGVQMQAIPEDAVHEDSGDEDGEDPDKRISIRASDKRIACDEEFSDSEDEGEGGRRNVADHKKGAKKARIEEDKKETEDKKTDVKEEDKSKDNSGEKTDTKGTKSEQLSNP
pIC50: −log10 of the molar value.
Items are presented alongside their recorded pIC50.

CS(=O)(=O)NCC(Nc1ncc(-c2nnc(C(F)F)o2)cn1)c1ccc(F)cc1 (single isomer, unassigned) [38(+)] ... < 4.52
C[C@@H](Nc1ncc(-c2nnc(C(F)F)o2)cn1)c1ccc(F)cc1F [Example 99-R] ... < 4.52
O=C(NCC(Nc1ncc(-c2nnc(C(F)F)o2)cn1)c1ccc(F)cc1)C1CC1 (single isomer, unassigned) [168(+)] ... < 4.52
O=S(=O)(NCC(Nc1ncc(-c2nnc(C(F)F)o2)cn1)c1ccc(F)cc1)C1CC1 (stereo not shown) [Example 110] ... < 4.52
CS(=O)(=O)CC(Nc1ncc(-c2nnc(C(F)F)o2)cn1)c1ccc(F)cc1 (single isomer, unassigned) [161(+)] ... < 4.52
CS(=O)(=O)NCC(Nc1ncc(-c2nnc(C(F)F)o2)cn1)c1ccc(OC(F)F)cc1 (single isomer, unassigned) [115(+)] ... < 4.52
CS(=O)(=O)N(CC(Nc1ncc(-c2nnc(C(F)F)o2)cn1)c1ccc(F)cc1)CC(F)(F)F (single isomer, unassigned) [118(+)] ... < 4.52
CS(=O)(=O)NCC(Nc1ncc(-c2nnc(C(F)F)o2)cn1)c1ccc(OC(F)(F)F)cc1 (single isomer, unassigned) [122(+)] ... < 4.52

The compound listed as Fc1cccc(F)c1C1(Nc2ncc(-c3nnc(C(F)F)o3)cn2)CC1 [Example 11] shows pIC50 equal to < 4.52

GET /value?item= FC(F)c1nnc(-c2cnc(NC3(c4ccccc4)CC3)nc2)o1 [Example 4] &field=pIC50 returns < 4.52
